test system: HeLa Kyoto; test: thermal stability score vs G1/S (z-score of summed log2 fold changes over temperatures); higher = more thermally stable than in G1/S; conditions: cell cycle stage: early G1 (4.5 h after nocodazole release)
Outcome measure: thermal stability score
Just the number, please, no unit attached.

Tell me measured thermal stability score for MTLESIMACCLSEEAKEARRINDEIERQLRRDKRDARRELKLLLLGTGESGKSTFIKQMRIIHGSGYSDEDKRGFTKLVYQNIFTAMQAMIRAMDTLKIPYKYEHNKAHAQLVREVDVEKVSAFENPYVDAIKSLWNDPGIQECYDRRREYQLSDSTKYYLNDLDRVADPAYLPTQQDVLRVRVPTTGIIEYPFDLQSVIFRMVDVGGQRSERRKWIHCFENVTSIMFLVALSEYDQVLVESDNENRMEESKALFRTIITYPWFQNSSVILFLNKKDLLEEKIMYSHLVDYFPEYDGPQRDAQAAREFILKMFVDLNPDSDKIIYSHFTCATDTENIRFVFAAVKDTILQLNLKEYNLV [GNAQ] please.
-0.77

###

Reported melting temperature values follow for various sequences
system: HeLa Kyoto; assay: melting temperature (median over replicates), in situ; higher = more thermally stable; conditions: cell cycle stage: G1/S
Don't forget the unit after the number, please.

MKQDASRNAAYTVDCEDYVHVVEFNPFENGDSGNLIAYGGNNYVVIGTCTFQEEEADVEGIQYKTLRTFHHGVRVDGIAWSPETRLDSLPPVIKFCTSAADMKIRLFTSDLQDKNEYKVLEGHTDFINGLVFDPKEGQEIASVSDDHTCRIWNLEGVQTAHFVLHSPGMSVCWHPEETFKLMVAEKNGTIRFYDLLAQQAILSLESEQVPLMSAHWCLKNTFKVGAVAGNDWLIWDITRSSYPQNKRPVHMDRACLFRWSTISENLFATTGYPGKMASQFQIHHLGHPQPILMGSVAVGSGLSWHRTLPLCVIGGDHKLLFWVTEV [NUP37]	53.3 °C
MSDIGDWFRSIPAITRYWFAATVAVPLVGKLGLISPAYLFLWPEAFLYRFQIWRPITATFYFPVGPGTGFLYLVNLYFLYQYSTRLETGAFDGRPADYLFMLLFNWICIVITGLAMDMQLLMIPLIMSVLYVWAQLNRDMIVSFWFGTRFKACYLPWVILGFNYIIGGSVINELIGNLVGHLYFFLMFRYPMDLGGRNFLSTPQFLYRWLPSRRGGVSGFGVPPASMRRAADQNGGGGRHNWGQGFRLGDQ [DERL1]	51.6 °C

// switching to the query sequence
Tell me measured melting temperature for MHRDSCPLDCKVYVGNLGNNGNKTELERAFGYYGPLRSVWVARNPPGFAFVEFEDPRDAADAVRELDGRTLCGCRVRVELSNGEKRSRNRGPPPSWGRRPRDDYRRRSPPPRRRSPRRRSFSRSRSRSLSRDRRRERSLSRERNHKPSRSFSRSRSRSRSNERK [SRSF3] please.
55.3 °C

###

Reported thermal stability score values follow for various sequences
test system: HeLa Kyoto; test: thermal stability score vs G1/S (z-score of summed log2 fold changes over temperatures); higher = more thermally stable than in G1/S; conditions: cell cycle stage: early G1 (4.5 h after nocodazole release)
Just the number, please, no unit attached.

# example entries with known answers
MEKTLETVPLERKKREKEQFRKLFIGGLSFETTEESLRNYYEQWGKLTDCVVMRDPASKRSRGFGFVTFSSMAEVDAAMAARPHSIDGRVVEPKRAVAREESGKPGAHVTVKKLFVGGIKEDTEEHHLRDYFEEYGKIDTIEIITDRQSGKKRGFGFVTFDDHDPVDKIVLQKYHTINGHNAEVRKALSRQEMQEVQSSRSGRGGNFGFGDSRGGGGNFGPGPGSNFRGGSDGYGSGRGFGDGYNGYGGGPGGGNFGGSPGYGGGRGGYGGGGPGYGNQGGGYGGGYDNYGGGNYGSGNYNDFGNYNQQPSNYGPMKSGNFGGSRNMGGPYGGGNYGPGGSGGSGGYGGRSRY [HNRNPA2B1]	5.29
MNGRADFREPNAEVPRPIPHIGPDYIPTEEERRVFAECNDESFWFRSVPLAATSMLITQGLISKGILSSHPKYGSIPKLILACIMGYFAGKLSYVKTCQEKFKKLENSPLGEALRSGQARRSSPPGHYYQKSKYDSSVSGQSSFVTSPAADNIEMLPHYEPIPFSSSMNESAPTGITDHIVQGPDPNLEESPKRKNITYEELRNKNRESYEVSLTQKTDPSVRPMHERVPKKEVKVNKYGDTWDE [OCIAD1]	-1.09
MVLESVARIVKVQLPAYLKRLPVPESITGFARLTVSEWLRLLPFLGVLALLGYLAVRPFLPKKKQQKDSLINLKIQKENPKVVNEINIEDLCLTKAAYCRCWRSKTFPACDGSHNKHNELTGDNVGPLILKKKEV [CISD2]	-4.5
MEAVLNELVSVEDLLKFEKKFQSEKAAGSVSKSTQFEYAWCLVRSKYNDDIRKGIVLLEELLPKGSKEEQRDYVFYLAVGNYRLKEYEKALKYVRGLLQTEPQNNQAKELERLIDKAMKKDGLVGMAIVGGMALGVAGLAGLIGLAVSKSKS [FIS1]	-2.36
MSLGRLCRLLKPALLCGALAAPGLAGTMCASRDDWRCARSMHEFSAKDIDGHMVNLDKYRGFVCIVTNVASQUGKTEVNYTQLVDLHARYAECGLRILAFPCNQFGKQEPGSNEEIKEFAAGYNVKFDMFSKICVNGDDAHPLWKWMKIQPKGKGILGNAIKWNFTKFLIDKNGCVVKRYGPMEEPLVIEKDLPHYF [GPX4]	-2.51

// switching to the query sequence
Tell me measured thermal stability score for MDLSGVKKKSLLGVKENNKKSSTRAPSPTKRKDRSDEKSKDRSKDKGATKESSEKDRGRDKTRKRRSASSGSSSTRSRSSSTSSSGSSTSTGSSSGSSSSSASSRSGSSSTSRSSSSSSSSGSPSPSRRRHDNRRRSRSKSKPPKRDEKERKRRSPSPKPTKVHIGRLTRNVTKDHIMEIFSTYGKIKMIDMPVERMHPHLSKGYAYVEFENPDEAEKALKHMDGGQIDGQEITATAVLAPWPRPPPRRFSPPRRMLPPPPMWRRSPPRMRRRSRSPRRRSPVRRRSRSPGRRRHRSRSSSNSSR [RNPS1] please.
0.608

###

system: HeLa Kyoto; assay: solubility in G1/S (NP-40 vs SDS abundance) (log2 ratio); higher = more soluble; details: cell cycle stage: G1/S
Label scheme for solubility in G1/S (log2): lower than -0.04 is not fulfilled, -0.04 and above is fulfilled.

// known answers, use as guide
MSSLSGKVQTVLGLVEPSKLGRTLTHEHLAMTFDCCYCPPPPCQEAISKEPIVMKNLYWIQKNAYSHKENLQLNQETEAIKEELLYFKANGGGALVENTTTGISRDTQTLKRLAEETGVHIISGAGFYVDATHSSETRAMSVEQLTDVLMNEILHGADGTSIKCGIIGEIGCSWPLTESERKVLQATAHAQAQLGCPVIIHPGRSSRAPFQIIRILQEAGADISKTVMSHLDRTILDKKELLEFAQLGCYLEYDLFGTELLHYQLGPDIDMPDDNKRIRRVRLLVEEGCEDRILVAHDIHTKTRLMKYGGHGYSHILTNVVPKMLLRGITENVLDKILIENPKQWLTFK [PTER]	fulfilled
CIAPIN1	fulfilled
MGNLLKVLTCTDLEQGPNFFLDFENAQPTESEKEIYNQVNVVLKDAEGILEDLQSYRGAGHEIREAIQHPADEKLQEKAWGAVVPLVGKLKKFYEFSQRLEAALRGLLGALTSTPYSPTQHLEREQALAKQFAEILHFTLRFDELKMTNPAIQNDFSYYRRTLSRMRINNVPAEGENEVNNELANRMSLFYAEATPMLKTLSDATTKFVSENKNLPIENTTDCLSTMASVCRVMLETPEYRSRFTNEETVSFCLRVMVGVIILYDHVHPVGAFAKTSKIDMKGCIKVLKDQPPNSVEGLLNALRYTTKHLNDETTSKQIKSMLQ [FAM49B]	fulfilled
MAVVPLLLLGGLWSAVGASSLGVVTCGSVVKLLNTRHNVRLHSHDVRYGSGSGQQSVTGVTSVDDSNSYWRIRGKSATVCERGTPIKCGQPIRLTHVNTGRNLHSHHFTSPLSGNQEVSAFGEEGEGDYLDDWTVLCNGPYWVRDGEVRFKHSSTEVLLSVTGEQYGRPISGQKEVHGMAQPSQNNYWKAMEGIFMKPSELLKAEAHHAEL [SDF2]	fulfilled
MVEADRPGKLFIGGLNTETNEKALETVFGKYGRIVEVLLIKDRETNKSRGFAFVTFESPADAKDAARDMNGKSLDGKAIKVEQATKPSFERGRHGPPPPPRSRGPPRGFGAGRGGSGGTRGPPSRGGHMDDGGYSMNFNMSSSRGPLPVKRGPPPRSGGPSPKRSAPSGLVRSSSGMGGRAPLSRGRDSYGGPPRREPLPSRRDVYLSPRDDGYSTKDSYSSRDYPSSRDTRDYAPPPRDYTYRDYGHSSSRDDYPSRGYGDRDGYGRDRDYSDHPSGGSYRDSYESYGNSRSAPLTRGPPPSYGGSSRYDDYSSSRDGYGGSRDSYSSSRSDLYSSCDRVGRQERGLPPSVERGYPSSRDSYSSSSRGAPRGAGPGGSRSDRGGGRSRY [RBMXL1]	not fulfilled

In plain terms: is recorded solubility in G1/S (log2) at least -0.04 for MAKQKRKVPEVTEKKNKKLKKASAEGPLLGPEAAPSGEGAGSKGEAVLRPGLDAEPELSPEEQRVLERKLKKERKKEERQRLREAGLVAQHPPARRSGAELALDYLCRWAQKHKNWRFQKTRQTWLLLHMYDSDKVPDEHFSTLLAYLEGLQGRARELTVQKAEALMRELDEEGSDPPLPGRAQRIRQVLQLLS [C7ORF50] ?
not fulfilled
